Biological target: T1, Human ACVR2A (human, UniProt P27037 20-135, limits assumed); further: test concentration or dose not given here
T1 construct: also called activin receptor, type II A
T1 sequence (P27037 20-135 limits assumed): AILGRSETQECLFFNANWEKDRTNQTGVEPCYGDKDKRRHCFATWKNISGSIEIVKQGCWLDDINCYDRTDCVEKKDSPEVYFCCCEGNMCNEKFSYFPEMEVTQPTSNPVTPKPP
Assay: ELISA
Procedure: The binding of ACVR2A-specific monoclonal antibodies to human ACVR2A, mouse ACVR2A, biotinylated goat anti-human kappa light chain (positive control) and human Fc (negative control) were determined by ELISA.
Please go through the items and note down their optical density.
Answers are plain numbers, in OD.

Worked cases, optical density given:
binder	optical density (OD)
369_F05 (antibody, V domains shown, VH/VL only) VH: EVQLLESGGGLVQPGGSLRLSCAASGFTFSSYSMNWVRQAPGKGLEWVSGINYNGGYKSYADSVKGRFTISRDNSKNTLYLQMNSLRAEDTAVYYCARGATWHDTHLDYWGQGTLVTVSS VL: DIQMTQSPSSLSASVGDRVTITCRASQSISSYLNWYQQKPGKAPKLLIYAASSLQSGVPSRFSGSGSGTDFTLTISSLQPEDFATYYCQQGYDSPLTFGGGTKVEIK	0.796
373_F07 (antibody, V domains shown, VH/VL only) VH: EVQLLESGGGLVQPGGSLRLSCAASGFTFSSYSMNWVRQAPGKGLEWVSGINYNSGYKSYADSVKGRFTISRDNSKNTLYLQMNSLRAEDTAVYYCARGATWHDTHLDYWGQGTLVTVSS VL: DIQMTQSPSSLSASVGDRVTITCRASQSILSYLNWYQQKPGKAPKLLIYAATSLASGVPSRFSGSGSGTDFTLTISSLQPEDFATYYCQQSYETPLTFGGGTKVEIK	3.61
371_G01 (antibody, V domains shown, VH/VL only) VH: EVQLLESGGGLVQPGGSLRLSCAASGFTFSDYSMNWVRQAPGKGLEWVSNINYNGGYTSYADSVKGRFTISRDNSKNTLYLQMNSLRAEDTAVYYCARGATWHDTHLDYWGQGTLVTVSS VL: DIQMTQSPSSLSASVGDRVTITCRASQSILTYLNWYQQKPGKAPKLLIYAATSLASGVPSRFSGSGSGTDFTLTISSLQPEDFATYYCQQSYDLPLTFGGGTKVEIK	2.01
365_D12 (antibody, V domains shown, VH/VL only) VH: EVQLLESGGGLVQPGGSLRLSCAASGFTFDSYGMNWVRQAPGKGLEWVSNINYNGGYTGYADSVKGRFTISRDNSKNTLYLQMNSLRAEDTAVYYCARSANWHDTALDYWGQGTLVTVSS VL: DIQMTQSPSSLSASVGDRVTITCRASQSIVTYLNWYQQKPGKAPKLVIYAATSRASGVPSRFSGSGSGTDFTLTISSLQPEDFATYYCQQSYDTPLTFGGGTKVEIK	2.57
367_A02 (antibody, V domains shown, VH/VL only) VH: EVQLLESGGGLVQPGGSLRLSCAASGFTFDSYGMNWVRQAPGKGLEWVSSINYNSGYKGYADSVKGRFTISRDNSKNTLYLQMNSLRAEDTAVYYCARGATWHDTHLDYWGQGTLVTVSS VL: DIQMTQSPSSLSASVGDRVTITCRASQSIISYLNWYQQKPGKAPKLLIYAVTSRASGVPSRFSGSGSGTDFTLTISSLQPEDFATYYCQQSYDTPLTFGGGTKVEIK	2.23

Give one value of optical density per listed binder.
1. 365_A11 (antibody, V domains shown, VH/VL only) VH: EVQLLESGGGLVQPGGSLRLSCAASGFTFDDYGMNWVRQAPGKGLEWVSGINYNSGYTSYADSVKGRFTISRDNSKNTLYLQMNSLRAEDTAVYYCARSANWHDTALDYWGQGTLVTVSS VL: DIQMTQSPSSLSASVGDRVTITCRASQSILSYLNWYQQKPGKAPKLVIYAATSLASGVPSRFSGSGSGTDFTLTISSLQPEDFATYYCQQSYESPLTFGGGTKVEIK
2. 365_A09 (antibody, V domains shown, VH/VL only) VH: EVQLLESGGGLVQPGGSLRLSCAASGFTFSSYGMHWVRQAPGKGLEWVASINYNGGYTSYADSVKGRFTISRDNSKNTLYLQMNSLRAEDTAVYYCARGATWHDTHLDYWGQGTLVTVSS VL: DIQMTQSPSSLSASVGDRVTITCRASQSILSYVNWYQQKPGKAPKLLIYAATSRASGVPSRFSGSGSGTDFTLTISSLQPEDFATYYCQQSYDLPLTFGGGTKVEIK
3. 373_G02 (antibody, V domains shown, VH/VL only) VH: EVQLLESGGGLVQPGGSLRLSCAASGFTFSSYSMNWVRQAPGKGLEWVSGINYNGGYTSYADSVKGRFTISRDNSKNTLYLQMNSLRAEDTAVYYCARGATWHDTHLDYWGQGTLVTVSS VL: DIQMTQSPSSLSASVGDRVTITCRASQSIITYLNWYQQKPGKAPKLLIYAATSRASGVPSRFSGSGSGTDFTLTISSLQPEDFATYYCQQSYSSPLTFGGGTKVEIK
4. 365_F06 (antibody, V domains shown, VH/VL only) VH: EVQLLESGGGLVQPGGSLRLSCAASGFTFSSYGMNWVRQAPGKGLEWVAGINYNSGYKSYADSVKGRFTISRDNSKNTLYLQMNSLRAEDTAVYYCARSANWHDTALDYWGQGTLVTVSS VL: DIQMTQSPSSLSASVGDRVTITCRASQSILSYVNWYQQKPGKAPKLLIYAATSRASGVPSRFSGSGSGTDFTLTISSLQPEDFATYYCQQSDNLPLTFGGGTKVEIK
5. 366_G09 (antibody, V domains shown, VH/VL only) VH: EVQLLESGGGLVQPGGSLRLSCAASGFTFDDYSMNWVRQAPGKGLEWVASINYNSGYTGYADSVKGRFTISRDNSKNTLYLQMNSLRAEDTAVYYCARGATWHDTHLDYWGQGTLVTVSS VL: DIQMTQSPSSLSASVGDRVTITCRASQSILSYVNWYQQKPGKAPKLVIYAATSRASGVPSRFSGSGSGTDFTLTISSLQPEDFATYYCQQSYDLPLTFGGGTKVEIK

1. 2.04
2. 2.45
3. 3.59
4. 1.95
5. 1.85
